molecular target: Potassium-transporting ATPase (Rattus norvegicus) (UniProt P09626+P18598); experiment: Gastric antisecretory activity was tested in rats at 30 mg/kg, po expressed as the percentage of inhibition against the acid output of the control group; assay type: functional, organism-based; set-up: dose 30 mg/kg
Measure: inhibition (%)

Cc1cccnc1-n1ccnc1[S+]([O-])Cc1ccccc1N1CCOCC1 (stereo not drawn)
100
COc1cccnc1-n1ccnc1[S+]([O-])Cc1ccccc1N1CCOCC1 (stereo not drawn)
85
CCNc1ccccc1C[S+]([O-])c1nccn1-c1ncccc1C (stereo not drawn)
100

====

Here's a batch of molecules along with measured pIC50 for Potassium-transporting ATPase (Sus scrofa, UniProt P19156).
pIC50: −log10 of the molar value.
Measure: pIC50

CN(C)c1ccccc1C[S+]([O-])c1nc2c(n1-c1ccccn1)CCC2 (stereo not drawn)
4.49
CN(C)c1ccccc1C[S+]([O-])c1nccn1Cc1ccccn1 (stereo not drawn)
4.34

// provenance: ChEMBL document CHEMBL1129052
